experiment: fish toxicity against water; conditions: Blugil fish (a kind of trout), in vivo, other: exposure in water
measurement.type: LC50 (µg/mL)
One number for each entry, in µg/mL.

## Input Could you share which LC50 value was measured for CCCCCCCCCCCCCCCC(=O)OC [methyl palmitate] ?
## Output 1000

----------
assay: in vivo; conditions: in vivo; species and route not given
measurement.type: LD50

## Input Could you share which LD50 value was measured for CCCCCCCCCCCCCCCCCC(=O)OC [methyl stearate] ?
## Output > 17200 mg/kg

----------
test: oral toxicity of methyl palmitate in mice; settings: mouse, in vivo, administered orally to mice
measurement.type: LD50

## Input Could you share which LD50 value was measured for CCCCCCCCCCCCCCCC(=O)OC [methyl palmitate] ?
## Output > 20000 mg/kg
